B1: Caulobacter ParB omega fusion; a variant is named by its letters at X, in order, B8GW30 (parent)
chain: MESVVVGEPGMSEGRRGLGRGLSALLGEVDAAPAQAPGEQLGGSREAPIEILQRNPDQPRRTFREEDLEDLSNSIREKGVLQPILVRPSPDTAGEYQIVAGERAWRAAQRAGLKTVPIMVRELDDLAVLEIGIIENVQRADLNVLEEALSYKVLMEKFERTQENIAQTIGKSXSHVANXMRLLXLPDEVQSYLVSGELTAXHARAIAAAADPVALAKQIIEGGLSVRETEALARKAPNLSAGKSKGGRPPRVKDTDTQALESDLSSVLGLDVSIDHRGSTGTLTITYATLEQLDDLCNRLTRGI

Variants of: B1
Assay: one-hybrid fitness for binding parS DNA (scaled: cognate 1, non-cognate 0); higher = stronger binding
Settings: with parS DNA site
Over roughly 81,000 sequences, “one-hybrid fitness for binding parS DNA” has its median near -0.17; the highest 2% begin near 0.51. Many of the other results were omitted from the sample, so the highest values are more common in it than they were.
measured property: one-hybrid fitness for binding parS DNA
Reply with just the number.

RLWF = 0.255
RRKC = 0.649
RSWN = 0.412

Exercise: Check the records and state one-hybrid fitness for binding parS DNA for "RIFS"
Key: 0.995

Exercise: Output measured one-hybrid fitness for binding parS DNA for this item: "RLWM"
Key: 0.342

Exercise: Entry "RRVC" needs its one-hybrid fitness for binding parS DNA filled in; supply it.
Key: 0.673

Exercise: Provide measured one-hybrid fitness for binding parS DNA value, entry: "RIAN"
Key: 0.432

Exercise: Provide one value: measured one-hybrid fitness for binding parS DNA of "RIFP"
Key: 0.206

Exercise: Give the measured one-hybrid fitness for binding parS DNA for "RSWC"
Key: 0.847
